Reference source for all entries: the kinase profiling compilation of Christmann-Franck et al. (2016)

experimental.system: CDC42BPB (human)
procedure.text: radiometric filter-binding kinase assay, Kinase HotSpot
protocol.conditions: compound 0.5 µM; ATP 10 µM
Entries and their measured residual activity follow.
Report the figure in % without appending any unit label.

Consider the following illustrative entries.
>  <compound>
Cc1ccc(NC2=CC(=O)c3sc(C)nc3C2=O)cc1

>  <experimental.system>
CDC42BPB (human)

>  <result.value>
109

$$$$
>  <compound>
COc1ccc2c(c[n+](C)c3c4cc5c(cc4ccc23)OCO5)c1OC

>  <experimental.system>
CDC42BPB (human)

>  <result.value>
107

$$$$
>  <compound>
CCN(CC)CCNC(=O)c1c(C)[nH]c(/C=C2\C(=O)Nc3ccc(Cl)cc32)c1C

>  <experimental.system>
CDC42BPB (human)

>  <result.value>
96.1

$$$$

Record summary for c1ccc(-c2n[nH]cc2-c2ccnc3ccccc23)nc1 : reported residual activity = 102

Record summary for O=C1NC(=O)/C(=C/c2ccc3c(c2)OC(F)(F)O3)S1 : reported residual activity = 96.4

Record summary for O=C1NC(=O)C(c2cn(CCCn3ccnc3)c3ccccc23)=C1Nc1ccccc1 : reported residual activity = 105

Record summary for CCN(CC)CCNC(=O)c1c(C)[nH]c(/C=C2\C(=O)Nc3ccc(F)cc32)c1C : reported residual activity = 101

Record summary for CCC(=O)Nc1ccc2ncnc(Nc3cccc(Br)c3)c2c1 : reported residual activity = 114

Record summary for CCCC(=O)Oc1ccc2[nH]c(C(=O)c3cc4ccccc4[nH]3)cc2c1 : reported residual activity = 99.5

Record summary for c1ccc(-c2n[nH]c3c2oc2ccccc23)cc1 : reported residual activity = 99

Record summary for CNC(=O)c1cc(Oc2ccc(NC(=O)Nc3ccc(Cl)c(C(F)(F)F)c3)cc2)ccn1 : reported residual activity = 102

Record summary for N#CC(C#N)=C(N)/C(C#N)=C/c1ccc(O)cc1 : reported residual activity = 109

Record summary for CCOC(=O)c1c(C)[nH]c(/C=C2\C(=O)Nc3ccccc32)c1C : reported residual activity = 110

Record summary for CCN(CC)C(=O)c1ccc(Nc2nc(OCC3CCCCC3)c3nc[nH]c3n2)cc1 : reported residual activity = 99.3

Record summary for CC(=O)c1ccc(N2CCOCC2)cc1O : reported residual activity = 87.2

Record summary for CC(C)N(CCC(=O)c1ccc2ccccc2c1)Cc1ccccc1 : reported residual activity = 95

====

experimental.system: UniProt P07333
Sequence (P07333 whole entry, looked up): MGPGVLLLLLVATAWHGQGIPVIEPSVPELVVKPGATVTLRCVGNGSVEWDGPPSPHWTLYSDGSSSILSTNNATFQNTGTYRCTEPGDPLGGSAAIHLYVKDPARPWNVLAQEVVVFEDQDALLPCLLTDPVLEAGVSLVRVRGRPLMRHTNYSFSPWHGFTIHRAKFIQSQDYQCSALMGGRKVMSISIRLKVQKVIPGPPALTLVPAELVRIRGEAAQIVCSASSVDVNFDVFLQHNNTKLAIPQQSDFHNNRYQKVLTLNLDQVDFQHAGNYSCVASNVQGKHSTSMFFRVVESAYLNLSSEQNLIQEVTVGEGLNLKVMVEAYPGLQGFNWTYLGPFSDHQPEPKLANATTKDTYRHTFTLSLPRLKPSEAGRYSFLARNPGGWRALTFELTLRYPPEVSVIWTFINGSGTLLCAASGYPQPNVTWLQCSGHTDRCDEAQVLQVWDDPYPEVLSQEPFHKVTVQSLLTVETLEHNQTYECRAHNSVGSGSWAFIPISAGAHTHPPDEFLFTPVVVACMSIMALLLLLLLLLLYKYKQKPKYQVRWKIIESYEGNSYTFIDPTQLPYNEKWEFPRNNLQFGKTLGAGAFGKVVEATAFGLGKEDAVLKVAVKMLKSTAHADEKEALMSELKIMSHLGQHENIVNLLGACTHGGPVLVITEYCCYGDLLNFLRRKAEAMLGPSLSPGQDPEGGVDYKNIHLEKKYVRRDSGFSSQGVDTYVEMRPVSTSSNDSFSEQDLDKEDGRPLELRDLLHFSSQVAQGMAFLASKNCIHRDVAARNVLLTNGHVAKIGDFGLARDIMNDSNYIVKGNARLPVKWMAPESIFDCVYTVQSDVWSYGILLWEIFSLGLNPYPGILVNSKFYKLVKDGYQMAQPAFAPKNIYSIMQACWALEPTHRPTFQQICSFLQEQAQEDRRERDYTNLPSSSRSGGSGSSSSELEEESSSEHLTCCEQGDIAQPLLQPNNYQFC
procedure.text: radiometric filter-binding kinase assay, Kinase HotSpot
protocol.conditions: compound 0.5 µM; ATP 10 µM
Entries and their measured residual activity follow.
Report the figure in % without appending any unit label.

>  <smiles.text>
Nc1cccc(-c2cc3c(Oc4cccc(O)c4)ncnc3[nH]2)c1

>  <residual activity (%)>
13.6

$$$$
>  <smiles.text>
O=C1Nc2ccc(Cl)cc2/C1=C/c1cc(Cl)c(O)c(Cl)c1

>  <residual activity (%)>
77.9

$$$$
>  <smiles.text>
O=C1NC(=O)C(c2cn(CCCn3ccnc3)c3ccccc23)=C1Nc1ccccc1

>  <residual activity (%)>
97.5

$$$$
>  <smiles.text>
CCCC(=O)Oc1ccc2[nH]c(C(=O)c3cc4ccccc4[nH]3)cc2c1

>  <residual activity (%)>
103

$$$$
>  <smiles.text>
CC[n+]1c(/C=C/N(C)c2ccccc2)n(-c2ccccc2)c2ccc(-c3nc4ccccc4s3)cc21

>  <residual activity (%)>
108

$$$$

Record summary for N#CC(C#N)=C(N)/C(C#N)=C/c1ccc(O)cc1 : reported residual activity = 98

Record summary for Cc1ccc(S(=O)(=O)/C=C/C#N)cc1 : reported residual activity = 93.6

Record summary for c1ccc(-c2n[nH]cc2-c2ccnc3ccccc23)nc1 : reported residual activity = 95.5

Record summary for O=c1cc(N2CCOCC2)oc2c1ccc1ccccc12 : reported residual activity = 103

Record summary for O=C(Nc1cccc(Nc2nccc(Nc3cccc(C(F)(F)F)c3)n2)c1)C1CC1 : reported residual activity = 63.1

Record summary for O=C1NC(=O)/C(=C/c2ccc3c(c2)OC(F)(F)O3)S1 : reported residual activity = 106

Record summary for O=S(=O)(c1cccc2cnccc12)N1CCCNCC1 : reported residual activity = 97.9

====

Entries and their measured residual activity follow.
experimental.system: TXK (human)
procedure.text: radiometric filter-binding kinase assay, Kinase HotSpot
protocol.conditions: compound 0.5 µM; ATP 10 µM
Report the figure in % without appending any unit label.

>  <molecule>
CO[C@H]1CC2CC[C@@H](C)[C@@](O)(O2)C(=O)C(=O)N2CCCC[C@H]2C(=O)OC([C@H](C)C[C@@H]2CC[C@@H](O)[C@H](OC)C2)CC(=O)[C@H](C)/C=C(\C)[C@@H](O)[C@@H](OC)C(=O)[C@H](C)C[C@H](C)/C=C/C=C/C=C/1C (some centres undefined)

>  <unit>
%

>  <residual activity>
105

$$$$
>  <molecule>
Oc1cccc(-c2nc(N3CCOCC3)c3oc4ncccc4c3n2)c1

>  <unit>
%

>  <residual activity>
94.8

$$$$
>  <molecule>
CC(=O)c1ccc(N2CCOCC2)cc1O

>  <unit>
%

>  <residual activity>
103

$$$$
>  <molecule>
Nc1cccc(-c2cc3c(Oc4cccc(O)c4)ncnc3[nH]2)c1

>  <unit>
%

>  <residual activity>
24.5

$$$$
>  <molecule>
CCN(CC)CCNC(=O)c1c(C)[nH]c(/C=C2\C(=O)Nc3ccc(Cl)cc32)c1C

>  <unit>
%

>  <residual activity>
79.5

$$$$
>  <molecule>
O=c1cc(N2CCOCC2)oc2c1ccc1ccccc12

>  <unit>
%

>  <residual activity>
98.9

$$$$
>  <molecule>
CC(C)N(CCC(=O)c1ccc2ccccc2c1)Cc1ccccc1

>  <unit>
%

>  <residual activity>
97.1

$$$$
>  <molecule>
Cc1[nH]c(/C=C2\C(=O)Nc3ccc(S(=O)(=O)N(C)c4cccc(Cl)c4)cc32)c(C)c1C(=O)N1CCN(C)CC1

>  <unit>
%

>  <residual activity>
102

$$$$

Record summary for N#C/C(=C(/N)Sc1ccc(N)cc1)c1ccccc1C(F)(F)F : reported residual activity = 98.7

====

experimental.system: RPS6KB2 (human) (UniProt Q9UBS0)
Sequence (Q9UBS0 whole entry, looked up): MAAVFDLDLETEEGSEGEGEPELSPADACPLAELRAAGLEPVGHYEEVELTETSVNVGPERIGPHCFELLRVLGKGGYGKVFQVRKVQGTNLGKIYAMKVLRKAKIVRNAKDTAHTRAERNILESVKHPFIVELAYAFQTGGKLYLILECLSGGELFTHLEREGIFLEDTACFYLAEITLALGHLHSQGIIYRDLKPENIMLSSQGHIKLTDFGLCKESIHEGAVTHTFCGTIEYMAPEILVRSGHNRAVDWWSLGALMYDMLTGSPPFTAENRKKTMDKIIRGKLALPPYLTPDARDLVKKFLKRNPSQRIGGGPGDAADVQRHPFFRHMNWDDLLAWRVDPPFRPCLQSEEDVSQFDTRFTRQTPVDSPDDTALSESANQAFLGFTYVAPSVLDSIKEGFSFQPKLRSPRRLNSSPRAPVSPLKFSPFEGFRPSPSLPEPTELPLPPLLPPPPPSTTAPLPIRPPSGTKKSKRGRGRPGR
procedure.text: radiometric filter-binding kinase assay, Kinase HotSpot
protocol.conditions: compound 0.5 µM; ATP 10 µM
property.label: residual activity
Please answer using the number first and the unit second.

>  <smiles.text>
CC(=O)c1ccc(N2CCOCC2)cc1O

>  <residual activity>
101%

$$$$

The molecule Nc1ccc2ncnc(NCCc3ccc(Oc4ccccc4)cc3)c2c1 , tested on RPS6KB2 (human) (UniProt Q9UBS0), showed residual activity of 99.2%

====

experimental.system: ABL2 (human) (UniProt P42684)
Sequence (P42684 whole entry, looked up): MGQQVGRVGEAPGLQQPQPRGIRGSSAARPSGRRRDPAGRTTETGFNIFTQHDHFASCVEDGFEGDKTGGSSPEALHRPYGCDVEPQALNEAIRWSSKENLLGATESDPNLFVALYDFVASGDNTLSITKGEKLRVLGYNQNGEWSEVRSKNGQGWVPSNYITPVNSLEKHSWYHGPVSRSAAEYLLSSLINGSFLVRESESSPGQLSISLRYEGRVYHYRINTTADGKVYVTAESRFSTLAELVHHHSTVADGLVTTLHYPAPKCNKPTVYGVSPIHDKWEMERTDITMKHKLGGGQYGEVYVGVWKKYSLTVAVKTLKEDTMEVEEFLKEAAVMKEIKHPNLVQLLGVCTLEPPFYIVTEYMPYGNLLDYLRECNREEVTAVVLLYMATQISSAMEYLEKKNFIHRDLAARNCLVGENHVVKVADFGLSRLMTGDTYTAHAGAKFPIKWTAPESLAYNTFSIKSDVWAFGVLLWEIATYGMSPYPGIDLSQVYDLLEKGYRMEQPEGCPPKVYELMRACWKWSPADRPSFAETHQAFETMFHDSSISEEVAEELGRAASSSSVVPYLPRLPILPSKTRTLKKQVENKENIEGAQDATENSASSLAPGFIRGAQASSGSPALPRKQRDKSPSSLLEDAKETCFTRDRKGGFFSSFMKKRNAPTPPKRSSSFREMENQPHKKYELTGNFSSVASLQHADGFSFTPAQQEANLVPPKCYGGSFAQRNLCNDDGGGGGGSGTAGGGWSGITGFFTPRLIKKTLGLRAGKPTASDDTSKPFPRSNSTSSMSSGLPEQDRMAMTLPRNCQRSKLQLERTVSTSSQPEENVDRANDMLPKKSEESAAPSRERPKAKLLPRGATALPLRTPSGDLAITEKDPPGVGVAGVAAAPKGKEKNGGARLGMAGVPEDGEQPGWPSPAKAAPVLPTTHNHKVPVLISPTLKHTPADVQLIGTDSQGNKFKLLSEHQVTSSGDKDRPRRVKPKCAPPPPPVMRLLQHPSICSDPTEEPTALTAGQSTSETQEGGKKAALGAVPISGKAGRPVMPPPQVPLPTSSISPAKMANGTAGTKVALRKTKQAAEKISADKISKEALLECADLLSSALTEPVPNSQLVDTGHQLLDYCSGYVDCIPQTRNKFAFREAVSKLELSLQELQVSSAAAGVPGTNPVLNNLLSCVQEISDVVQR
procedure.text: radiometric filter-binding kinase assay, Kinase HotSpot
protocol.conditions: compound 0.5 µM; ATP 10 µM
property.label: residual activity (%)
Report the figure in % without appending any unit label.

>  <smiles.text>
Nc1ccc2ncnc(NCCc3ccc(Oc4ccccc4)cc3)c2c1

>  <residual activity, %>
102

$$$$
>  <smiles.text>
CCN(CC)C(=O)c1ccc(Nc2nc(OCC3CCCCC3)c3nc[nH]c3n2)cc1

>  <residual activity, %>
67.8

$$$$
>  <smiles.text>
Nc1ncnc2[nH]nc(Nc3ccc(F)cc3)c12

>  <residual activity, %>
82.3

$$$$
>  <smiles.text>
O=C(Nc1cccc(Nc2nccc(Nc3cccc(C(F)(F)F)c3)n2)c1)C1CC1

>  <residual activity, %>
83.8

$$$$

The compound CC[n+]1c(/C=C/N(C)c2ccccc2)n(-c2ccccc2)c2ccc(-c3nc4ccccc4s3)cc21 , tested on ABL2 (human) (UniProt P42684), showed residual activity of 95.7

The compound CC(C)N(CCC(=O)c1ccc2ccccc2c1)Cc1ccccc1 , tested on ABL2 (human) (UniProt P42684), showed residual activity of 100

The compound COc1ccc2c(c[n+](C)c3c4cc5c(cc4ccc23)OCO5)c1OC , tested on ABL2 (human) (UniProt P42684), showed residual activity of 96.7

====

experimental.system: CDK4 CCND1 (human) (UniProt P24385+P11802)
Sequence (P11802 whole entry, looked up): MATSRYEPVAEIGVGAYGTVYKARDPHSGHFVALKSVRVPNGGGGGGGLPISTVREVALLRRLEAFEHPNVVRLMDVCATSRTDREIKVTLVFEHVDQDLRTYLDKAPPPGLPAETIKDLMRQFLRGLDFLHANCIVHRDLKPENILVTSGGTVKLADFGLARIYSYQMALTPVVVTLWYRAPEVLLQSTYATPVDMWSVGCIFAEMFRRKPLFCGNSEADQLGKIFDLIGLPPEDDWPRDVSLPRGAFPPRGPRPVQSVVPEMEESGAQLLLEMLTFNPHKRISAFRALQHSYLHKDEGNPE
Sequence (P24385 whole entry, looked up): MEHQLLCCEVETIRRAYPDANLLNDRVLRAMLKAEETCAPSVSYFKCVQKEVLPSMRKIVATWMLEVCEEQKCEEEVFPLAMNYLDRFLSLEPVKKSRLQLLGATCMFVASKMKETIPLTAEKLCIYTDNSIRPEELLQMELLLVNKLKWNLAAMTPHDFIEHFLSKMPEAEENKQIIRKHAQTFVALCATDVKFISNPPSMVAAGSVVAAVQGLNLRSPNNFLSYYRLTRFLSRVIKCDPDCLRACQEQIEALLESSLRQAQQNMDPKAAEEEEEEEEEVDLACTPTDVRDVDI
procedure.text: radiometric filter-binding kinase assay, Kinase HotSpot
protocol.conditions: compound 0.5 µM; ATP 10 µM
property.label: residual activity (%)
Report the figure in % without appending any unit label.

>  <molecule>
Nc1ncnc2[nH]nc(Nc3ccc(F)cc3)c12

>  <unit>
%

>  <residual activity>
90.3

$$$$

Record summary for Cc1ccc(NC2=CC(=O)c3sc(C)nc3C2=O)cc1 : reported residual activity = 92

Record summary for Nc1ncnc2c1c(-c1ccc(Oc3ccccc3)cc1)cn2C1CCCC1 : reported residual activity = 121

Record summary for CC(C)N(CCC(=O)c1ccc2ccccc2c1)Cc1ccccc1 : reported residual activity = 103

Record summary for O=S(=O)(c1cccc2cnccc12)N1CCCNCC1 : reported residual activity = 92.2
